Some molecules, each annotated with its measured pIC50.
Biological target: ASK1 T838 auto phosphorylation in HEK-293T cells (Homo sapiens (Human))
Sequence (Q99683 whole entry): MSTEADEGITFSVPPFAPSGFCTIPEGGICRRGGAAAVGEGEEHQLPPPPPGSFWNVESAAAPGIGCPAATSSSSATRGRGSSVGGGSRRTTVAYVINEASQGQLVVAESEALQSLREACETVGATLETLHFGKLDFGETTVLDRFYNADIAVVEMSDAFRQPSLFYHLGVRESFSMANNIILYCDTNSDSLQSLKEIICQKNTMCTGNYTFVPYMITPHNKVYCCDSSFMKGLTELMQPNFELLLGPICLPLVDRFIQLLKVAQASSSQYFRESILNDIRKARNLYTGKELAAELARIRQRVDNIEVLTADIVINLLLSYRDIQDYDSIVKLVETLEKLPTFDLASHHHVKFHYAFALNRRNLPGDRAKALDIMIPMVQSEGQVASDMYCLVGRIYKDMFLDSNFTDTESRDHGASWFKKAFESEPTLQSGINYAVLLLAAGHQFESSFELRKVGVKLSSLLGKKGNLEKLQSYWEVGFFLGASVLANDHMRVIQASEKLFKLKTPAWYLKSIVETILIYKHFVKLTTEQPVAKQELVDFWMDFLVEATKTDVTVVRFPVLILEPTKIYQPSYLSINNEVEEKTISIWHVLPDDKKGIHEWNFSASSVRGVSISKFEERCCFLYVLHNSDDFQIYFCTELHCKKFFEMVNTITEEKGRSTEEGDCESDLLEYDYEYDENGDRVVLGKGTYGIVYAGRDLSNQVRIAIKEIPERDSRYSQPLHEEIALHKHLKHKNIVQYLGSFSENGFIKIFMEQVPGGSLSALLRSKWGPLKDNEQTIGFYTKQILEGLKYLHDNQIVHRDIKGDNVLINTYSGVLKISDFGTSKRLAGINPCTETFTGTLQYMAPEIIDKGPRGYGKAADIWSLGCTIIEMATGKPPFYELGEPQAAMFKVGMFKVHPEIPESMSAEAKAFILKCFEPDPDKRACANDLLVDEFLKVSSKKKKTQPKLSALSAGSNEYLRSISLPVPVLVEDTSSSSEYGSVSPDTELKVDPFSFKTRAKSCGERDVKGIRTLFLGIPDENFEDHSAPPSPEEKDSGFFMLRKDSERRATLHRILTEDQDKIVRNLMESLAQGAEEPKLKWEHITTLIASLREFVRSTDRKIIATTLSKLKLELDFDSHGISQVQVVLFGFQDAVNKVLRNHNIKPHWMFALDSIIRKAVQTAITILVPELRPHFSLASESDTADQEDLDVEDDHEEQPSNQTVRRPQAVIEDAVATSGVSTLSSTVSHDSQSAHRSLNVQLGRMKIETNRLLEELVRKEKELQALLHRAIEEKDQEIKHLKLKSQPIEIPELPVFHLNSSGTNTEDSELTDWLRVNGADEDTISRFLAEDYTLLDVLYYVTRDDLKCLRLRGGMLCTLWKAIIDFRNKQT
Assay: ASK1 (AUTO PHOS T838) assay, MSD format
Assay type: cell-based
Conditions: HEK 293T cells transfected with ASK1-V5 full length plasmid, compounds 1 hr at 37° C.; read-out: IC50
pIC50: −log10 of the molar value.

O=C1Nc2cccc(n2)-c2nncn2CCCCOc2cc(F)c(-c3ccncc3)cc21    > 6.00
O=C1Nc2cccc(n2)-c2nncn2CCCCOc2cc(F)c(-c3cncnc3)cc21    > 6.00
O=C1Nc2cccc(n2)-c2nncn2CCCCOc2cc(C(F)(F)F)ccc21    > 6.00
C[C@H]1CCCOc2cc(N3CCN(C)CC3)ccc2C(=O)Nc2cccc(n2)-c2nncn21    > 6.00
NCc1ccc2c(c1)C(=O)Nc1cccc(n1)-c1nncn1CCCCO2    > 6.00
O=C1Nc2cccc(n2)-c2nncn2C/C=C/COc2c1cccc2C(F)(F)F    < 5.00

Incoming: Notebook: pull reported pIC50 for ASK1 T838 auto phosphorylation in HEK-293T cells (Homo sapiens (Human)), entry Cc1cc(-c2ccc3c(c2)C(=O)Nc2cccc(n2)-c2nncn2CCCCO3)n(C)n1
Outgoing: > 6.00

Incoming: Notebook: pull reported pIC50 for ASK1 T838 auto phosphorylation in HEK-293T cells (Homo sapiens (Human)), entry O=C1Nc2cccc(n2)-c2nncn2C/C=C/CCOc2cc(F)c(Br)cc21
Outgoing: 5.00 to 6.00

* * *

Target: ASK1 T838 auto phosphorylation in HEK-293T cells (Homo sapiens (Human))
Test: ASK1 (AUTO PHOS T838) assay, MSD format
Assay type: cell-based
Conditions: HEK 293T cells transfected with ASK1-V5 full length plasmid, compounds 1 hr at 37° C.; read-out: IC50
endpoint-label: IC50

// known answers, use as guide
Cn1cc(-c2ccc3c(c2)C(=O)Nc2cccc(n2)-c2nncn2CCCCO3)nn1    1000 to 10000 nM
CN1CCN(c2ccc3c(c2)OCCCCn2cnnc2-c2cccc(n2)NC3=O)CC1    < 1000 nM

Incoming: Notebook: pull reported IC50 for ASK1 T838 auto phosphorylation in HEK-293T cells (Homo sapiens (Human)), entry O=C1Nc2cccc(n2)-c2nncn2CCCCOc2cc(F)c(-c3ccnc(C4CC4)c3)cc21
Outgoing: < 1000 nM

Incoming: Notebook: pull reported IC50 for ASK1 T838 auto phosphorylation in HEK-293T cells (Homo sapiens (Human)), entry O=C1Nc2cccc(n2)-c2nncn2C/C=C\CCOc2cc(F)c(N3CCOCC3)cc21
Outgoing: < 1000 nM

* * *

Molecular target: ASK1 T838 auto phosphorylation in HEK-293T cells (Homo sapiens (Human))
Assay: ASK1 (AUTO PHOS T838) assay, MSD format
Assay type: cell-based
Settings: HEK 293T cells transfected with ASK1-V5 full length plasmid, compounds 1 hr at 37° C.; read-out: IC50
endpoint-label: IC50

// known answers, use as guide
O=C1Nc2cccc(n2)-c2nncn2CCCCOc2cc(F)c(N3CCOCC3)cc21 [Example 71]    < 1000 nM
O=C1Nc2cccc(n2)-c2nncn2CCCCOc2cc(N3CCOCC3)ccc21 [Example 80]    < 1000 nM
CC(C)(C#N)c1ccc2c(c1)C(=O)Nc1cccc(n1)-c1nncn1CCCCO2 [Example 51]    < 1000 nM
Cc1ccc2c(c1)C(=O)Nc1cccc(n1)-c1nncn1CCCCO2 [Example 18]    < 1000 nM
C[C@@H]1CCCn2cnnc2-c2cccc(n2)NC(=O)c2cc(-c3cnn(CCN(C)C)c3)ccc2O1 [Example 147]    < 1000 nM

Incoming: Sample CN(C)CCn1cc(-c2cc3c(cc2C(F)(F)F)OCCCCn2cnnc2-c2cccc(n2)NC3=O)cn1 [Example 77] — what was its IC50?
Outgoing: < 1000 nM

Incoming: Sample O=C1Nc2cccc(n2)-c2nncn2C/C=C\CCOc2ccccc21 [Example 174] — what was its IC50?
Outgoing: < 1000 nM
